# METHOD_NOTES: Perfusion circuit with pig liver: pharmacokinetics of rapamycin
# Format: in vitro ADME, cochon
# SETUP_CONDITIONS: whole blood and plasma; pig liver on perfusion machine, 37°C; read-out: pic de concentration (time after injection) (converted)
RECORDED_METRIC: Tmax (min)
Your answer should be a plain number; it is taken to be in min.

Data request: Item `CO[C@H]1C[C@@H]2CC[C@@H](C)[C@@](O)(O2)C(=O)C(=O)N2CCCC[C@H]2C(=O)O[C@H]([C@H](C)C[C@@H]2CC[C@@H](O)[C@H](OC)C2)CC(=O)[C@H](C)/C=C(\C)[C@@H](O)[C@@H](OC)C(=O)[C@H](C)C[C@H](C)/C=C/C=C/C=C/1C` has what recorded Tmax?
Data returned: 5
